This collection of values is drawn from patent US20220125947A1.

Target: T1, γδ T cell receptor on human γδ T cells (human)
T1 construct: Mixed population of primary cells; also called AG000003021 (γδ T cells)
Test: flow cytometry, dose-response binding at 37° C. on human γδ T cells
Description: Binding of antibodies to human γδ T cells or SKW cell lines expressing Vγ9/Vδ2, Vγ9/Vδ2 or Vγ5/Vδ2 was carried out by flow cytometry. […] Gating and data analysis: Human anti-human Vγ9 antibody (VG9B2 mAb at 10 nM) was used to mark the gating of positive population. […] Cells were also assessed for cell binding of control mAbs by RL1 (A647) Geomeans from the live cell population. […]
observable: Max. Activity (fold over background)

# binder, observable, units symbol, quantitative result
rows = [
    ("VG9B57 (antibody, human IgG1, kappa, V domains shown) VH: EVQLVESGGGLVKPGGSLRLSCAASGFTFSSHDMNWVRQAPGKGLGWVSSISSSSSYIFYADSVKGRFTISRDNAKNSLYLQMSSLRAEDTAVYYCARDLGVGVRDYYYYGMDVWGQGTMVTVSS VL: DIQMTQSPSAMSASVGDRVTITCRASQDITNYLAWFQQKPGKVPKRLIYAASSLQGGVPSRFSGSGSGTEFTLTISSLQPEDFSTYYCLQHDTYPYTFGQGTKLEIKR", "Max. Activity", "fold over background", 1210),
    ("VG9B67 (antibody, human IgG1, kappa, V domains shown) VH: EVQLVESGGGLVKPGGSLRLSCAASGFTFSSYTMNWVRQAPGKGLEWVSSISSSSSYIDYAESVKGRFTISRDNAKNSLYLQMNSLRAEDTAVYYCARDGDILATIRGSFDYWGQGTTVTVSS VL: DIVMTQTPLSLPVTPGEPASISCRSSQSLLDSDAGNTYLDWYLQKPGQSPQLLIYTLSYRASGVPDRFSGSGSGTDFTLKISRVEAEDVAIYYCMQRIEFPITFGQGTKVEIKR", "Max. Activity", "fold over background", 2270),
]
